- Tested on: Escherichia coli TOP10
- Method notes: shrunken log2 fold change of peptide-encoding DNA abundance (4.5 h post-induction vs induction); higher = less antimicrobial activity (less host growth inhibition)
- Measurement parameters: time post-induction: 4.5 h; library: site-saturation at positions 5, 18, 19, 20
Measured endpoint: shrunken log2 fold change
// response body must contain only the number

Example cases with answers are listed next.
RRIRCRPPRLPRPRPRPWLMPRP : -0.159
RRIRCRPPRLPRPRPRPYTNPRP : -1.19
RRIRKRPPRLPRPRPRPPEQPRP : 0.0815
RRIRGRPPRLPRPRPRPPIDPRP : 0.888
RRIRLRPPRLPRPRPRPFYLPRP : -0.572
RRIRIRPPRLPRPRPRPRAAPRP : 0.458
RRIRWRPPRLPRPRPRPGMGPRP : 0.525
RRIRCRPPRLPRPRPRPIRKPRP : -0.126

Entry `RRIRRRPPRLPRPRPRPKLRPRP` — recorded shrunken log2 fold change = 1.25

Entry `RRIRFRPPRLPRPRPRPWMAPRP` — recorded shrunken log2 fold change = -0.254

Entry `RRIRARPPRLPRPRPRPWWLPRP` — recorded shrunken log2 fold change = -8.93e-05

Entry `RRIRFRPPRLPRPRPRPEGYPRP` — recorded shrunken log2 fold change = 0.0525

Entry `RRIRVRPPRLPRPRPRPARYPRP` — recorded shrunken log2 fold change = 0.0291

Entry `RRIRVRPPRLPRPRPRPHEYPRP` — recorded shrunken log2 fold change = -0.419

Entry `RRIRGRPPRLPRPRPRPFGWPRP` — recorded shrunken log2 fold change = 0.741

Entry `RRIRMRPPRLPRPRPRPMPFPRP` — recorded shrunken log2 fold change = 0.221

Entry `RRIRCRPPRLPRPRPRPLMWPRP` — recorded shrunken log2 fold change = -0.185

Entry `RRIRIRPPRLPRPRPRPDDCPRP` — recorded shrunken log2 fold change = -0.271

Entry `RRIRERPPRLPRPRPRPTELPRP` — recorded shrunken log2 fold change = -0.577

Entry `RRIRDRPPRLPRPRPRPTPIPRP` — recorded shrunken log2 fold change = 0.103

Entry `RRIRYRPPRLPRPRPRPATPPRP` — recorded shrunken log2 fold change = 0.158

Entry `RRIRGRPPRLPRPRPRPTWKPRP` — recorded shrunken log2 fold change = 0.847

Entry `RRIRQRPPRLPRPRPRPTEVPRP` — recorded shrunken log2 fold change = -0.018

Entry `RRIRMRPPRLPRPRPRPPHHPRP` — recorded shrunken log2 fold change = 0.527

Entry `RRIRARPPRLPRPRPRPLVPPRP` — recorded shrunken log2 fold change = 0.125

###

# key: entry, value: shrunken log2 fold change
- Tested on: Escherichia coli TOP10
- Method notes: shrunken log2 fold change of peptide-encoding DNA abundance (4.5 h post-induction vs induction); higher = less antimicrobial activity (less host growth inhibition)
- Measurement parameters: time post-induction: 4.5 h; library: site-saturation at positions 5, 18, 19, 20
// response body must contain only the number

Example cases with answers are listed next.
RRIRDRPPRLPRPRPRPPVYPRP : -0.175
RRIRRRPPRLPRPRPRPTSKPRP : 0.162
RRIRARPPRLPRPRPRPIVVPRP : -0.14
RRIRNRPPRLPRPRPRPRHPPRP : 0.136
RRIRGRPPRLPRPRPRPLFHPRP : 0.134

Now take the following sequence into account.
Entry `RRIRWRPPRLPRPRPRPSCTPRP` — recorded shrunken log2 fold change = -0.11

###

- Test system: Escherichia coli TOP10
- Method notes: shrunken log2 fold change of peptide-encoding DNA abundance (4.5 h post-induction vs induction); higher = less antimicrobial activity (less host growth inhibition)
- Measurement parameters: time post-induction: 4.5 h; library: site-saturation at positions 5, 18, 19, 20
Mark 0 (no) for shrunken log2 fold change values under 0.04, and 1 (yes) for everything at or above.

RRIRDRPPRLPRPRPRPGRTPRP : 0 (no)

Query: Reported shrunken log2 fold change reaches at least 0.04 for `RRIRMRPPRLPRPRPRPTSKPRP` ?
Result: 1 (yes)

Query: Reported shrunken log2 fold change reaches at least 0.04 for `RRIRPRPPRLPRPRPRPEYPPRP` ?
Result: 1 (yes)

Query: Reported shrunken log2 fold change reaches at least 0.04 for `RRIRRRPPRLPRPRPRPKCFPRP` ?
Result: 1 (yes)

Query: Reported shrunken log2 fold change reaches at least 0.04 for `RRIRPRPPRLPRPRPRPSKSPRP` ?
Result: 0 (no)

Query: Reported shrunken log2 fold change reaches at least 0.04 for `RRIRQRPPRLPRPRPRPKQEPRP` ?
Result: 0 (no)

Query: Reported shrunken log2 fold change reaches at least 0.04 for `RRIRNRPPRLPRPRPRPDYIPRP` ?
Result: 0 (no)

Query: Reported shrunken log2 fold change reaches at least 0.04 for `RRIRGRPPRLPRPRPRPKGCPRP` ?
Result: 1 (yes)

###

- System: Escherichia coli TOP10
- Method notes: shrunken log2 fold change of peptide-encoding DNA abundance (4.5 h post-induction vs induction); higher = less antimicrobial activity (less host growth inhibition)
- Measurement parameters: time post-induction: 4.5 h; library: site-saturation at positions 5, 18, 19, 20
# label = bin(measured shrunken log2 fold change), where bins are low = under -0.1, mid = from -0.1 up to 0.09, high = 0.09 and over

Solved entries:
RRIRQRPPRLPRPRPRPGWLPRP : high
RRIRDRPPRLPRPRPRPALGPRP : high
RRIRWRPPRLPRPRPRPVWNPRP : low
RRIRSRPPRLPRPRPRPVNPPRP : low
RRIRERPPRLPRPRPRPIIWPRP : low

Query: Each sequence maps to one class by shrunken log2 fold change. Which class for `RRIRHRPPRLPRPRPRPNMDPRP` ?
Result: low

Query: Each sequence maps to one class by shrunken log2 fold change. Which class for `RRIRMRPPRLPRPRPRPVKMPRP` ?
Result: low

Query: Each sequence maps to one class by shrunken log2 fold change. Which class for `RRIRTRPPRLPRPRPRPRWCPRP` ?
Result: high

###

- Test system: Escherichia coli TOP10
- Method notes: shrunken log2 fold change of peptide-encoding DNA abundance (4.5 h post-induction vs induction); higher = less antimicrobial activity (less host growth inhibition)
- Measurement parameters: time post-induction: 4.5 h; library: site-saturation at positions 5, 18, 19, 20
Measured endpoint: shrunken log2 fold change

RRIRIRPPRLPRPRPRPIIVPRP : -0.666
RRIRQRPPRLPRPRPRPGTFPRP : -0.499
RRIRDRPPRLPRPRPRPYIQPRP : -0.161
RRIRKRPPRLPRPRPRPWQCPRP : -0.00136
RRIRERPPRLPRPRPRPRCAPRP : 0.228

Entry `RRIRRRPPRLPRPRPRPTFLPRP` — recorded shrunken log2 fold change = 0.115

Entry `RRIRNRPPRLPRPRPRPCGEPRP` — recorded shrunken log2 fold change = 0.0369

Entry `RRIRWRPPRLPRPRPRPEFEPRP` — recorded shrunken log2 fold change = 0.0113

###

- Tested on: Escherichia coli TOP10
- Method notes: shrunken log2 fold change of peptide-encoding DNA abundance (4.5 h post-induction vs induction); higher = less antimicrobial activity (less host growth inhibition)
- Measurement parameters: time post-induction: 4.5 h; library: site-saturation at positions 5, 18, 19, 20
Mark n for shrunken log2 fold change values under 0.003, and y for everything at or above.

Solved entries:
RRIRGRPPRLPRPRPRPVQRPRP : y
RRIRPRPPRLPRPRPRPGVAPRP : y

Turning now to a further record.
Query: Reported shrunken log2 fold change reaches at least 0.003 for `RRIRWRPPRLPRPRPRPMTQPRP` ?
Result: y

###

- System: Escherichia coli TOP10;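 note: peptides expressed intracellularly from a pBAD plasmid library in pooled LB shake-flask culture, induced with 0.3% L-arabinose, DNA abundance read by NGS, three biological replicates, DESeq2 with apeglm shrinkage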
- Method notes: shrunken log2 fold change of peptide-encoding DNA abundance (4.5 h post-induction vs induction); higher = less antimicrobial activity (less host growth inhibition)
- Measurement parameters: time post-induction: 4.5 h; library: site-saturation at positions 5, 18, 19, 20
Mark NOT MET for shrunken log2 fold change values under -0.005, and MET for everything at or above.

Solved entries:
RRIRPRPPRLPRPRPRPRIHPRP : NOT MET
RRIRDRPPRLPRPRPRPVDVPRP : NOT MET
RRIRERPPRLPRPRPRPFRRPRP : MET
RRIRKRPPRLPRPRPRPCKPPRP : NOT MET

Query: Reported shrunken log2 fold change reaches at least -0.005 for `RRIRIRPPRLPRPRPRPEKRPRP` ?
Result: NOT MET

Query: Reported shrunken log2 fold change reaches at least -0.005 for `RRIRPRPPRLPRPRPRPYVEPRP` ?
Result: NOT MET

Query: Reported shrunken log2 fold change reaches at least -0.005 for `RRIRERPPRLPRPRPRPGWAPRP` ?
Result: MET

Query: Reported shrunken log2 fold change reaches at least -0.005 for `RRIRERPPRLPRPRPRPQSPPRP` ?
Result: NOT MET
